Molecular target: T1, huCD33-G69 stably expressed on Jurkat cells (human, UniProt P20138 18-364)
T1 construct: whole, on cells; >200,000 receptors per cell; also called CD33 Mutant; CD33 R69G
T1 sequence (P20138 18-364 R69G): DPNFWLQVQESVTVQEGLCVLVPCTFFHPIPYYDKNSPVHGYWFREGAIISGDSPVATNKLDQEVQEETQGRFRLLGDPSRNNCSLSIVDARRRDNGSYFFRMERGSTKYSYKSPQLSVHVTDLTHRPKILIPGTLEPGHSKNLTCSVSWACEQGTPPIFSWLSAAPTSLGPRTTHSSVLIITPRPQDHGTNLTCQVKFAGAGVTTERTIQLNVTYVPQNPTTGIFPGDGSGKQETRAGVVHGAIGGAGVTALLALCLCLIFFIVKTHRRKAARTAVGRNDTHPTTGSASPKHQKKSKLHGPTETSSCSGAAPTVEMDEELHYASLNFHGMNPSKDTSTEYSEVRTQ
Test: FACS on cells;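 note: fixed Jurkat lines probed with myc-tagged scFv periplasmic extracts, anti-myc PE flow cytometry, PE MFI fold binned − <2, + 2–10, ++ 10–30, +++ >30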
Entries and their FACS geometric mean fold change over Jurkat parental values follow.

- Polypeptide No. 111 (scFv, V domains shown, scFv) VH: QVQLVQSGAEVKKPGASVKVSCKASGGTFTSYGISWVRQAPGQGLEWMGWINPNTGVTNYAQDFQGRVTMTRDTSTSTVYMELSSLRSEDTAVYYCANEQGGFDYWGQGTLVTVSS VL: EIVMTQSPATLSVSPGERATLSCRASQSVAGSYLAWYQQKPGQAPRLLIYGASTRATGIPARFSGSGSGTEFTLTISSLQSEDFAVYYCQQYYSTPLTFGGGTKVEIKR: 10 to 30 fold

Record request: FACS geometric mean fold change over Jurkat parental value, item Polypeptide No. 127 (scFv, V domains shown, scFv) VH: QVQLVQSGAEVKKPGASVKVSCKASGYTFTNHHMHWVRQAPGQGLEWMGMINPSGGSTSYAQKFQGRVTMTRDTSTSTVYMELSSLRSEDTAVYYCARGRPVDIVATYYFDYWGQGTLVTVSS VL: DIQMTQSPSSLSASVGDRVTITCQASQDIRNFLNWYQQKPGKAPKLLIYGASTLHSGVPSRFSGSGSGTDFTLTISSLQPEDFATYYCQQSYSTPLTFGGGTKVEIKR 10 to 30 fold

Find the recorded FACS geometric mean fold change over Jurkat parental belonging to Polypeptide No. 96 (scFv, V domains shown, scFv) VH: QVQLVQSGAEVKKPGASVKVSCKASGGTFSSYAISWVRQAPGQGLEWMGWMNPSSANTGYAQKFQGRVTMTRDTSTSTVYMELSSLRSEDTAVYYCAKDEMELLTAFDIWGQGTMVTVSS VL: DIQMTQSPSSLSASVGDRVTITCRASQSIGSWLAWYQQKPGKAPKLLIYGVSTLHSGVPSRFSGSGSGTDFTLTISSLQPEDFATYYCQQSYSTPPTFGQGTKLEIKR and report it. > 30 fold

For Polypeptide No. 93 (scFv, V domains shown, scFv) VH: QVQLVQSGAEVKKPGASVKVSCKASGYSFTNYDISWVRQAPGQGLEWMGWVNPNSGNTGYAQKFQGRVTMTRDTSTSTVYMELSSLRSEDTAVYYCAKDAPYYYDSSGYYGVFDYWGQGTLVTVSS VL: DIVMTQSPLSLPVTPGEPASISCRSSQSLLHSNGYNYLDWYLQKPGQSPQLLIYAASSLQSGVPDRFSGSGSGTDFTLKISRVEAEDVGVYYCMQALQTPLTFGQGTRLEIKR , what is its reported FACS geometric mean fold change over Jurkat parental? 2 to 10 fold
